B1: PPP2R2B (parent)
chain: PSNRSFFSEIISSISDVKFSHSGR

# Variants of: B1
# protocol-notes: protein stability index of a GFP-peptide fusion (GPS, HEK-293T) (PSI 1-6); higher = more stable;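 further: lentivirally expressed fusions sorted by FACS into six bins by GFP to DsRed ratio, PSI derived from sequencing read proportions per bin multiplied by bin number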
# condition-label: c terminus: a fixed tail appended
recorded-metric: protein stability index

biopolymer_sequence="CSNRSFFSEIISSISDVKFSHSGR [P1C]" obs_value=2.05
biopolymer_sequence="PSNRSFFSETISSISDVKFSHSGR [I10T]" obs_value=3.37
biopolymer_sequence="PSNRSFFSEIISRISDVKFSHSGR [S13R]" obs_value=2.63
biopolymer_sequence="PSNRSFNSEIISSISDVKFSHSGR [F7N]" obs_value=3.48
biopolymer_sequence="PSNPSFFSEIISSISDVKFSHSGR [R4P]" obs_value=2.8
biopolymer_sequence="PSARSFFSEIISSISDVKFSHSGR [N3A]" obs_value=2.27
biopolymer_sequence="PSNFSFFSEIISSISDVKFSHSGR [R4F]" obs_value=1.81
biopolymer_sequence="PSNRSFFSEIISSISDVKFSWSGR [H21W]" obs_value=2.31
biopolymer_sequence="PSNRSFFSEIISYISDVKFSHSGR [S13Y]" obs_value=1.65
biopolymer_sequence="PSNTSFFSEIISSISDVKFSHSGR [R4T]" obs_value=2.48
biopolymer_sequence="PSNRSFFSEIISSISDVPFSHSGR [K18P]" obs_value=2.23
biopolymer_sequence="PSNRSFFSEIISSISDVKFSHSTR [G23T]" obs_value=2.14
biopolymer_sequence="PSNRSFFSEIISSKSDVKFSHSGR [I14K]" obs_value=3.17
biopolymer_sequence="PSQRSFFSEIISSISDVKFSHSGR [N3Q]" obs_value=2.4
biopolymer_sequence="PSNRSFFSEIISHISDVKFSHSGR [S13H]" obs_value=2.67
biopolymer_sequence="PSNRSSFSEIISSISDVKFSHSGR [F6S]" obs_value=3.07
biopolymer_sequence="PSNRSFSSEIISSISDVKFSHSGR [F7S]" obs_value=4.24
biopolymer_sequence="PSNRSFTSEIISSISDVKFSHSGR [F7T]" obs_value=2.79
biopolymer_sequence="PSNRSFFSNIISSISDVKFSHSGR [E9N]" obs_value=2.36
biopolymer_sequence="PSNRSFFSEIISSISDVKFSHSWR [G23W]" obs_value=2.09
biopolymer_sequence="PSNRSFFSEIISSISDVKFSPSGR [H21P]" obs_value=2.67
biopolymer_sequence="PSNRSFFSRIISSISDVKFSHSGR [E9R]" obs_value=2.2
biopolymer_sequence="PSNRSFFSEIISSASDVKFSHSGR [I14A]" obs_value=2.79
biopolymer_sequence="PSNRSFFSEIISSISDVKFGHSGR [S20G]" obs_value=2.26
biopolymer_sequence="PSNRSFFSEHISSISDVKFSHSGR [I10H]" obs_value=2.98
biopolymer_sequence="PSNRSFFSEIISSISDVKFSHSGG [R24G]" obs_value=2.21
biopolymer_sequence="PSNRSFFSEIISSISDVWFSHSGR [K18W]" obs_value=2.38
biopolymer_sequence="PSNRSFFSEIISSISDVKFSHSGI [R24I]" obs_value=1.61
biopolymer_sequence="PSNRSFFSEIISSISDVKASHSGR [F19A]" obs_value=3.07
